# system: human KOR (Homo sapiens)
# measurement.description: [35S]GTPγS coupling
# Assay type: biochemical
# reported pEC50; entries follow
pEC50 (log units): -log10 of the concentration in mol/L.

Known results for compounds:
{"compound": "Ic1ccc(CSc2nnc(-c3ccccn3)n2Cc2cccs2)cc1", "pEC50": 7.39}
{"compound": "FC(F)(F)c1ccc(Cl)c(CSc2nnc(-c3ccccn3)n2Cc2cccnc2)c1", "pEC50": 6.94}
{"compound": "Brc1ccc(CSc2nnc(-c3ccccn3)n2Cc2cccnc2)cc1", "pEC50": 6.83}
{"compound": "Brc1ccc(CSc2nnc(-c3ccccn3)n2Cc2cccs2)cc1", "pEC50": 7.18}
{"compound": "FC(F)(F)c1ccc(Cl)c(CSc2nnc(-c3ccccn3)n2Cc2ccco2)c1", "pEC50": 7.50}
{"compound": "Brc1ccc(CSc2nnc(-c3ccccn3)n2Cc2ccco2)cc1", "pEC50": 7.07}
{"compound": "FC(F)(F)c1ccc(Cl)c(CSc2nnc(-c3ccccn3)n2Cc2cccs2)c1", "pEC50": 7.57}

Now for the compound whose pEC50 we want.
Give its pEC50 value. Item: Ic1ccc(CSc2nnc(-c3ccccn3)n2Cc2ccco2)cc1
7.52

* * *

# system: human KOR (Homo sapiens, UniProt P41145)
# Sequence (P41145 whole entry): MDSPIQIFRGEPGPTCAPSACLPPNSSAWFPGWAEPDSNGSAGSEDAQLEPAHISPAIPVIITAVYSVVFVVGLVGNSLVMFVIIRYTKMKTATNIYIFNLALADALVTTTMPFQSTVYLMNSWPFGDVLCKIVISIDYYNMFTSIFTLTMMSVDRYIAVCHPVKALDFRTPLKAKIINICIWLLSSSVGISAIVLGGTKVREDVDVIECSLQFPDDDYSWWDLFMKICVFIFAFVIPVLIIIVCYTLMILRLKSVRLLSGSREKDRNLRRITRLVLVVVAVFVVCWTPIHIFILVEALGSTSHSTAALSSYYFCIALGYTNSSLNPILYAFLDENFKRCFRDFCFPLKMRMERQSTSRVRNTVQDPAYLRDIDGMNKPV
# measurement.description: In-cell western ERK1/2 phosphorylation in CHO-hKOR cells
# Type: cell-based
# reported ERK1/2 phosphorylation % U69,593 at 10 μM; entries follow

Known results for compounds:
{"compound": "FC(F)(F)c1ccc(Cl)c(CSc2nnc(-c3ccccn3)n2Cc2ccco2)c1", "reported": "114 ± 7 % U69,593"}
{"compound": "FC(F)(F)c1ccc(Cl)c(CSc2nnc(-c3ccccn3)n2Cc2cccs2)c1", "reported": "128 ± 6 % U69,593"}
{"compound": "Brc1ccc(CSc2nnc(-c3ccccn3)n2Cc2cccs2)cc1", "reported": "135 ± 8 % U69,593"}

Now for the compound whose ERK1/2 phosphorylation % U69,593 at 10 μM we want.
Give its ERK1/2 phosphorylation % U69,593 at 10 μM value. Item: Brc1ccc(CSc2nnc(-c3ccccn3)n2Cc2ccco2)cc1
114 ± 4 % U69,593

* * *

# system: human KOR (Homo sapiens, UniProt P41145)
# measurement.description: In-cell western ERK1/2 phosphorylation in CHO-hKOR cells
# Type: cell-based
attribute.measured: ERK1/2 phosphorylation EMAX, % of max U69,593

Known results for compounds:
{"compound": "Brc1ccc(CSc2nnc(-c3ccccn3)n2Cc2ccco2)cc1", "system": "human KOR (Homo sapiens, UniProt P41145)", "reported": "125 ± 2 % of max U69,593"}
{"compound": "Ic1ccc(CSc2nnc(-c3ccccn3)n2Cc2cccs2)cc1", "system": "human KOR (Homo sapiens, UniProt P41145)", "reported": "143 ± 4 % of max U69,593"}
{"compound": "Brc1ccc(CSc2nnc(-c3ccccn3)n2Cc2cccnc2)cc1", "system": "human KOR (Homo sapiens, UniProt P41145)", "reported": "117 ± 7 % of max U69,593"}

Give its ERK1/2 phosphorylation EMAX, % of max U69,593 value. Item: Ic1ccc(CSc2nnc(-c3ccccn3)n2Cc2cccnc2)cc1
109 ± 6 % of max U69,593

Item: Brc1ccc(CSc2nnc(-c3ccccn3)n2Cc2cccs2)cc1
149 ± 13 % of max U69,593

Item: Ic1ccc(CSc2nnc(-c3ccccn3)n2Cc2ccco2)cc1
131 ± 10 % of max U69,593

Item: FC(F)(F)c1ccc(Cl)c(CSc2nnc(-c3ccccn3)n2Cc2cccs2)c1
139 ± 9 % of max U69,593

Item: FC(F)(F)c1ccc(Cl)c(CSc2nnc(-c3ccccn3)n2Cc2cccnc2)c1
114 ± 8 % of max U69,593

Item: FC(F)(F)c1ccc(Cl)c(CSc2nnc(-c3ccccn3)n2Cc2ccco2)c1
120 ± 10 % of max U69,593
